# System: passive cutaneous anaphylaxis
# testName: Passive cutaneous anaphylaxis (PCA) in rats;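 also: male rats, challenged with antigen plus Evans blue three days post sensitization, killed 30 min later, dorsal skin bluing graded on a five point scale, summed over four sites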
# Type: in vivo
# runConditions: Rattus norvegicus, po, read-out: ED 50 p.o. (dose of drug giving 50% inhibition); p.o., dosed immediately prior to intravenous challenge; rats sensitized intradermally with anti-ovalbumen antiserum
Hi all, reminder that labels come from ED50, split as lo: < 0.1 mg/kg; mid: ≥ 0.1 mg/kg and < 0.5 mg/kg; hi: ≥ 0.5 mg/kg

C=CCn1c(=O)c2cc(C(=O)O)cn2c2ccccc21 [Example 19]; mid
CCCn1c(=O)c2cc(C(=O)O)cn2c2ccccc21 [Example 15]; lo
CCOC(=O)c1cc2c(=O)n(C)c3ccccc3n2c1 [Example 1]; hi
CCn1c(=O)c2cc(C(=O)O)cn2c2ccccc21 [Example 14]; lo
CCn1c(=O)c2cc(C(=O)O)cn2c2cc(Cl)ccc21 [24(d)]; mid
CCCCn1c(=O)c2cc(C(=O)O)cn2c2cc(Cl)ccc21 [Example 21]; mid
O=C(O)c1cc2c(=O)n(-c3ccccc3)c3ccccc3n2c1 [Example 13]; hi
Cn1c(=O)c2cc(C(=O)O)cn2c2ccccc21 [Example 12]; hi
CCCCCn1c(=O)c2cc(C(=O)O)cn2c2ccccc21 [Example 17]; mid
CCCCn1c(=O)c2cc(C(=O)O)cn2c2ccccc21 [Example 16]; lo
CCCCn1c(=O)c2cc(C(=O)OCC)cn2c2ccccc21 [Example 5]; hi
CCCCn1c(=O)c2cc(C(=O)O)cn2c2cc(Cl)c(Cl)cc21 [Example 22]; mid

All values here come from patent US4151280A.
